Hello, the source for this data is the supplement of paper PMC4466140, in case you need it.

Molecular target: CaAbp1-D2
Experiment: SPOT peptide array binding signal intensity (averaged, normalized) (arbitrary units (background-subtracted, floor 0; scale differs between SH3 domains)); higher = stronger binding of the SH3 domain to the peptide
Rule: SPOT peptide array binding signal intensity under 40 gives 0 (no), otherwise 1 (yes).

{"binder": "TEVPIPRRPPPPQAA", "classAssignment": "0 (no)"}
{"binder": "MFLISPPASPPPEFD", "classAssignment": "0 (no)"}
{"binder": "TSFKGRPKPPKTLKH", "classAssignment": "1 (yes)"}
{"binder": "IRMPSNPALPKKLLN", "classAssignment": "1 (yes)"}
{"binder": "VRVKKRPLIRPLNSS", "classAssignment": "1 (yes)"}
{"binder": "APKREAPKPPANTSP", "classAssignment": "0 (no)"}
{"binder": "VKPRQLFPIPLNKVD", "classAssignment": "1 (yes)"}
